These measurements were taken from paper PMC6093650.

Biological target: UniProt:Q9NPC2
Sequence (Q9NPC2 whole entry, species assumed): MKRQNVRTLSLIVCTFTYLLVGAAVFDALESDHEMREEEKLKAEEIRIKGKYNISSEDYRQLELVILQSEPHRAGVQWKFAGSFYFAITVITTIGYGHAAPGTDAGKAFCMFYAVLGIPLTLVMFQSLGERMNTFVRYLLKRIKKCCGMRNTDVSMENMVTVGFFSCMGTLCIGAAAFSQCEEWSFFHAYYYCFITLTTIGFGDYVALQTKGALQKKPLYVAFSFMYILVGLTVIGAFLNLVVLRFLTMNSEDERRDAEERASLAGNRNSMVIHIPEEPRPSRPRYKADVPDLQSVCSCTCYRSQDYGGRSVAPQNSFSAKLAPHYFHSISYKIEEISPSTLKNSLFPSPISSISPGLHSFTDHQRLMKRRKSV
Test: whole-cell patch-clamp of TASK-3 currents in 293T cells
measurement.type: pIC50
# log scale: pIC50 equals minus log10 of the concentration in mol/L

Task: Find the recorded pIC50 belonging to CC(C)=CCC/C(C)=C/Cc1cc2ccc(=O)oc2cc1O and report it.
Output: 3.64

---

Molecular target: Kir2.1 (Homo sapiens, UniProt P63252)
Sequence (P63252 whole entry): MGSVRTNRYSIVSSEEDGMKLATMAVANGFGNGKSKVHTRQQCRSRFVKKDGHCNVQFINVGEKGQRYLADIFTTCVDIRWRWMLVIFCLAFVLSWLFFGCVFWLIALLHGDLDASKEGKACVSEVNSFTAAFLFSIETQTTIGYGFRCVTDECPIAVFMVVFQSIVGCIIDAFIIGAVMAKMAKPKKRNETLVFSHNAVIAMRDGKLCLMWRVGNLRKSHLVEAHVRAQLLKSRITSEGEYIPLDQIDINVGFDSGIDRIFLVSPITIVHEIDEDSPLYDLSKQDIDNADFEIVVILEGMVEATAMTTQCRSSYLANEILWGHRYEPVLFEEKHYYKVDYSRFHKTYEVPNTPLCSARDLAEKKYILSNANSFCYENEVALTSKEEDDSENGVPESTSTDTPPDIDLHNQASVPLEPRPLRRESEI
Assay: whole-cell patch-clamp of Kir2.1 currents in 293T cells
Settings: n = 5, read-out: IC50 Kir 2.1
measurement.type: pIC50
# log scale: pIC50 equals minus log10 of the concentration in mol/L

Task: Find the recorded pIC50 belonging to CC(C)=CCC/C(C)=C/Cc1cc2ccc(=O)oc2cc1O and report it.
Output: 3.70
